Quick reference: inhibition of the listed items.
- system: Hexose transporter 1 (Plasmodium falciparum) (UniProt O97467)
- protocol_description: ST_JUDE_LEISH: Cytotoxicity at 2uM final concentration against transgenic Leishmania Mexicana promastigotes LmPfHT that are glucose transport deficient and complemented with the Plasmodium falciparum hexose transporter. Activity is measured by DNA content using SYBR green in vitro
- Assay type: functional
observation_type: inhibition

{"compound": "CC[C@H]1CN2CC[C@@H]1C[C@H]2[C@H](O)c1cc(N2CCC(C)CC2)nc2ccc(OC)cc12", "measurement": "9.59%"}
{"compound": "CN(c1cc(NC(=O)c2ccc(F)cc2)ccn1)C1CCN(Cc2cccc(O)c2)CC1", "measurement": "4.98%"}
{"compound": "C[C@H](Cc1ccc(OCCCCCCOc2ccccc2)cc1)NC[C@H](O)c1cccc(Cl)c1", "measurement": "-0.04%"}
{"compound": "CC[C@H]1CN2CC[C@@H]1C[C@H]2[C@H](O)c1cc(N2CCC(c3ccccc3)CC2)nc2ccc(OC)cc12", "measurement": "6.56%"}
{"compound": "CC1(C)CCCN(C(=O)Cc2ccc3c(c2)CCCC3)C1CN1CC=CC1 (stereo not given)", "measurement": "8.82%"}
{"compound": "CC(NC(C)(C)C)C(O)c1ccc(Cl)c(C(F)(F)F)c1 (stereo not given)", "measurement": "0.38%"}
{"compound": "CCCCCCC(CC)c1cc(O)c2c(c1)OC(C)(C)c1ccncc1-2 (stereo not given)", "measurement": "2.42%"}
{"compound": "CC[C@H]1CN2CC[C@@H]1C[C@H]2[C@H](O)c1cc(-c2cc(Cl)cc(Cl)c2)nc2ccc(OC)cc12", "measurement": "2.24%"}
{"compound": "CCCCCCCn1c(=O)c(C(=O)Nc2c(C)cccc2C)c(O)c2ccccc21", "measurement": "1.98%"}
{"compound": "O=C(c1cc(C(=O)NCc2ccc(Cl)cc2)c(=O)n(Cc2ccc(Cl)cc2)c1)c1cc(Cl)ccc1O", "measurement": "-1.29%"}
{"compound": "COc1nc(N)ncc1C(=O)NC1CN2CCC1CC2 (stereo not given)", "measurement": "6.98%"}
{"compound": "CC[C@H]1CN2CC[C@H]1C[C@H]2[C@H](O)c1cc(N2CCCC(CO)C2)nc2ccc(OC)cc12 (stereo not given in full)", "measurement": "1.73%"}
{"compound": "C=CC12CCN(CC1)C(C(O)c1ccnc3ccc(OC)cc13)C2 (stereo not given)", "measurement": "0.03%"}
{"compound": "O=C(/C=C/c1ccc(Cl)c(Cl)c1)NC1CCC(N2CCC(c3c[nH]c4ccc(O)cc34)CC2)CC1 (stereo not given)", "measurement": "1.52%"}
{"compound": "N[C@@H](CCN1CCC(c2cccc(O)c2)CC1)Cc1ccc(F)c(F)c1", "measurement": "2.04%"}

Origin of measurements: ChEMBL document CHEMBL3433997
